// data source = PubChem BioAssay (NCI)

- Tested on: SF-295 CNS
- PROTOCOL_DESCRIPTION: NCI-60 one-dose screen, 48 h
- RECORDED_CONDITIONS: 10 µM unless noted
This is part of a sample that, as a whole, favours compounds with a hit. Of some 83,000 tested, about 20% had one in any assay. The source made the active and inactive calls. How the source made its calls: active means growth percent below 10; inactive means the rest.
Respond with a class label; see active, inactive

Hi team, can someone confirm the assay call for "COC(=O)[C@@H](C)C[C@H](Cc1ccccc1)NC(=O)c1csc([C@@H](C[C@H](C(C)C)N(C)C(=O)[C@@H](NC(=O)[C@H]2CCCN2C)C2CC2)OC(C)=O)n1" ?
active

Hi team, can someone confirm the assay call for O=C(CC1(O)C(=O)Nc2ccc(Br)cc21)c1ccc(C(=O)NCC2CCC3(CC2)OOC2(CCCCC2)OO3)cc1 (configuration not stated) ?
inactive

Hi team, can someone confirm the assay call for "C=C1C(=O)O[C@H]2[C@H]1CC/C(COC(=O)C(=O)c1cn(Cc3ccccc3)c3ccccc13)=C\CC[C@@]1(C)O[C@@H]21" ?
inactive

Hi team, can someone confirm the assay call for "C=C1C[C@](OC)([C@H](O)C(=O)N[C@@H](OC)[C@@H]2C[C@@H](O)C(C)(C)[C@@H](C[C@@H](COC)OC)O2)O[C@H](C)[C@@H]1C" ?
active

Hi team, can someone confirm the assay call for "c1ccc(COc2ccc3[nH]cc(CCN(Cc4ccccc4)Cc4ccccc4)c3c2)cc1" ?
inactive

Hi team, can someone confirm the assay call for "NC(N)=N/N=C\c1c[nH]c2ccc(Br)cc12" ?
inactive

Hi team, can someone confirm the assay call for CC(=O)OC1CCC2C3CCC4=C/C(=N/OC(=O)c5ccc(N(CCCl)CCCl)cc5)CCC4(C)C3CC(C)C12 (configuration not stated) ?
inactive

====

Answer each item with its documented growth.
- Tested on: SW-620 colon
- PROTOCOL_DESCRIPTION: NCI-60 one-dose screen, 48 h (100 = growth as untreated, 0 = no growth, -100 = all killed)
- RECORDED_CONDITIONS: 10 µM unless noted
This is part of a sample that, as a whole, favours compounds with a hit. Of some 83,000 tested, about 20% had one in any assay.
Just the number in %, nothing appended.

# lookup: growth of "Oc1c(O)c(Cl)c(Cl)c(Cl)c1Cl"
28

# lookup: growth of "O=P(Oc1ccc(Cl)cc1)(N1CC1)N1CC1"
89.3

# lookup: growth of "CC1=C([Te]c2ccc(O)cc2)C(=O)c2ccccc2C1=O"
3.05

# lookup: growth of "C[C@@]1(CCCCCCCCCc2ccc(O)cc2)C[C@]2(C)OC(=O)C[C@@H]2OO1"
103

# lookup: growth of "N#CCCNc1ccccc1"
103

# lookup: growth of "COc1ccc(NC([Se])=NC23CC4CC(CC(C4)C2)C3)cc1"
2.24

# lookup: growth of "O=C1NC(=O)C(=Cc2cn(CCCCCCn3c4ccccc4c(=O)c4ccccc43)c3ccccc23)C(=O)N1"
93.8

# lookup: growth of "ClCCN(CCCl)c1ccc(/C=N/Nc2ncnc3nc[nH]c23)cc1"
77.6

# lookup: growth of "Cc1c2cc(Cl)c3ccccc3c2c[n+]2ccccc12"
50.7

# lookup: growth of "C=CCCCCCCCCC(=O)[O-].C=CCCCCCCCCC(=O)[O-].[Zn+2]"
102

# lookup: growth of CC(=O)OC1C(OC/C2=C/C3[C@@H](C(C)C)CC=C(C)[C@@H]3CC(OC(=O)/C=C/c3cn(C)cn3)[C@]3(C)C=C[C@@]2(O)O3)OCC(O)C1O (stereo partly specified)
35.8

====

- Tested on: A498 renal
- PROTOCOL_DESCRIPTION: NCI-60 one-dose screen, 48 h (100 = growth as untreated, 0 = no growth, -100 = all killed)
- RECORDED_CONDITIONS: 10 µM
About 83,000 compounds went through this panel and 20% of them were active in at least one assay; those are over-represented in the sample as a whole.
Answer each item with its documented growth.
Just the number in %, nothing appended.

# lookup: growth of "CC[C@H](C)[C@H](NC(=O)NC(C)(C)C)C(=O)N(C)[C@H](C[C@@H](OC(C)=O)c1nc(C(=O)N[C@@H](Cc2ccccc2)C[C@H](C)C(=O)OC)cs1)C(C)C"
-10

# lookup: growth of "COc1cc(NCCCN=C(N)N)c2ncccc2c1"
73.6

# lookup: growth of "C/C(=C\c1ccn(-c2ccc(N)cc2)n1)[C@@H]1C[C@@H]2O[C@]2(C)CCC[C@H](C)[C@H](O)[C@@H](C)C(=O)C(C)(C)[C@@H](O)CC(=O)O1"
-0.818

# lookup: growth of "COc1ccc(-n2c(C)nc3cc(OC)c(OC)cc3c2=O)cc1OC"
95.8

# lookup: growth of "C[Se]C(=O)c1ccccc1OC(C)=O"
66.5

# lookup: growth of "CCc1ccccc1[C@@H]1C[C@]2(C)CCO[C@@H]2OO1"
102

# lookup: growth of "CCCCCCC(=O)NC1=C(N2CC2)C(=O)C(NC(=O)CCCCCC)=C(N2CC2)C1=O"
66.9

# lookup: growth of "Cc1ccc(C(=O)NCCCOc2ccc(N)cc2Cl)cc1S(=O)(=O)F"
82.4

# lookup: growth of COC(C(=O)[C@@H](O)[C@@H](C)O)[C@@H]1Cc2cc3cc(O[C@H]4C[C@@H](O[C@H]5C[C@@H](O)[C@H](O)C(C)O5)[C@H](O)C(C)O4)c(C)c(O)c3c(O)c2C(=O)[C@H]1O[C@H]1C[C@@H](O[C@H]2C[C@@H](O[C@H]3C[C@@H](O)[C@@H](O)C(C)O3)[C@@H](O)C(C)O2)[C@H](O)C(C)O1 (stereo not given in full)
-39.9

# lookup: growth of "CC[C@H](C)[C@H](NC(=O)C12CC(NC(C)=O)(C1)C2)C(=O)N(C)[C@H](C[C@@H](OC(C)=O)c1nc(C(=O)N[C@@H](Cc2ccccc2)C[C@H](C)C(=O)OC)cs1)C(C)C"
-14.8

# lookup: growth of "N/C(=N/N=C/c1ccncc1)N[N+](=O)[O-]"
86.3

# lookup: growth of "CC(=O)O[C@H](C[C@H](C(C)C)N(C)C(=O)[C@@H](NC(=O)[C@H]1CCCCN1C)C(C)C)c1nc(C(=O)N[C@@H](Cc2ccccc2)C[C@H](C)C(=O)O)c(C(C)C)s1"
-8.17

# lookup: growth of "COc1cc2c(cc1OCCCn1c(-c3ccccn3)nc3ccccc31)N=C[C@@H]1CCCN1C2=O"
-72.1

# lookup: growth of "COc1ccc(C/C(C)=C(\c2ccc(OCCN3CCOCC3)cc2)c2ccc(OC(=O)Cc3ccccc3)cc2)cc1"
-90.5

# lookup: growth of "Cn1cc(-c2csc(-c3cn(CCN4CCOCC4)c4ccccc34)n2)c2cccnc21"
85.1

====

Answer each item with its documented growth.
- Tested on: UO-31 renal
- PROTOCOL_DESCRIPTION: NCI-60 one-dose screen, 48 h (100 = growth as untreated, 0 = no growth, -100 = all killed)
- RECORDED_CONDITIONS: 10 µM unless noted
About 83,000 compounds went through this panel and 20% of them were active in at least one assay; those are over-represented in the sample as a whole.
Just the number in %, nothing appended.

# lookup: growth of "C=CC[PH+](c1ccccc1)c1ccccc1.C=CC[PH+](c1ccccc1)c1ccccc1.[Cl][Pt][Cl]"
31.5

# lookup: growth of "O=C([O][Hg][c]1ccccc1)c1ccccc1"
-92.2

# lookup: growth of "CC(=O)O[C@H](C[C@H](C(C)C)N(C)C(=O)[C@@H](NC(=O)[C@H]1CCCCN1C)C(C)C)c1nc(C(=O)N[C@@H](Cc2ccccc2)C[C@H](C)C(=O)O)c(C)s1"
58.9

# lookup: growth of "O=C(O)CNC(=O)C(Cl)(Cl)Cl"
87.6

# lookup: growth of CCCCCSC1C2C(=O)C(Br)=CC13CCNc1c(O)c4c5c(c13)=[N+]2CCC=5C=N4 (centres undefined)
-66.9

# lookup: growth of "Cc1cc(N(CCCl)CCCl)ccc1/C=N\NC(=O)c1ccncc1"
82.5

# lookup: growth of "O=C(CCl)c1ccc([N+](=O)[O-])o1"
-8.81

# lookup: growth of "COc1ccc(C(=O)c2cc(OC)c(OC)c(OC)c2)cc1OC(C)=O"
39.6

# lookup: growth of "COC(=O)[C@@H](C)C[C@H](Cc1ccccc1)NC(=O)c1cccc([C@@H](C[C@H](C(C)C)N(C)C(=O)[C@@H](NC(=O)[C@H]2CCCCN2C)C(C)C)OC(C)=O)n1"
41.8

====

- System: SNB-19 CNS
- PROTOCOL_DESCRIPTION: NCI-60 one-dose screen, 48 h (100 = growth as untreated, 0 = no growth, -100 = all killed)
- RECORDED_CONDITIONS: 10 µM unless noted
This is part of a sample that, as a whole, favours compounds with a hit. Of some 83,000 tested, about 20% had one in any assay.
Binarize growth at 70%; below is condition met, at or above is condition not met.

Find out if reported growth for "C=CC[Se]C(=O)c1ccccc1OC(C)=O" is less than 70%
condition met

Find out if reported growth for COc1ccc2c(c1)c(C1(O)CC(CSC#N)OC1=O)cn2C(=O)c1ccc(Cl)cc1 (centres undefined) is less than 70%
condition not met

Find out if reported growth for O=C1C=C2C(=CCOC2O)O1 (centres undefined) is less than 70%
condition not met

Find out if reported growth for C[S+]1C=Cc2ccccc2C1c1ccc(Cl)cc1 (centres undefined) is less than 70%
condition not met

Find out if reported growth for "O=c1[nH]cc(N(CCCl)CCCl)c(=O)[nH]1" is less than 70%
condition met

Find out if reported growth for "CC(C)[C@@H]1NC(=O)[C@]2(C)CSC(=N2)c2csc(n2)CNC(=O)C[C@@H](/C=C/CCS)OC1=O" is less than 70%
condition met

Find out if reported growth for CC(=O)O[C@H]1C(=O)[C@@]2(C)[C@H]([C@H](OC(=O)c3ccccc3)[C@]3(O)C[C@H](OC(=O)[C@H](OC(=O)OCC4COC(C)(C)O4)[C@@H](NC(=O)c4ccccc4)c4ccccc4)C(C)=C1C3(C)C)[C@]1(OC(C)=O)CO[C@@H]1C[C@@H]2O (some centres undefined) is less than 70%
condition met

Find out if reported growth for "CC1(C)N=C(N)N=C(N)N1c1ccc(OCCCNC(=O)Nc2ccc(S(=O)(=O)F)cc2)c(Cl)c1" is less than 70%
condition met

Find out if reported growth for "O=[N+]([O-])c1cc([N+](=O)[O-])c(Cl)cc1Cl" is less than 70%
condition met
